target: glucocerebrosidase (Gcase) (Homo sapiens); construct: micellar solution containing 10 nM GCase and 100 nM saposin C; experiment: Glucocerebrosidase (Gcase) activation assay, 4-methylumbelliferyl-beta-D-glucopyranoside substrate, with saposin C; type: biochemical; details: 0.25 h; read-out: Percent Gcase Activation 1 μM Test Compound

COMPOUND	activation at 1 µM
Cc1cc(C)c2ncc(C(=O)Nc3ccc(-c4cocn4)cc3)n2n1	> 20%
CCC(NC(=O)c1noc2c(C)cc(C)nc12)c1ccccc1 (centres unmarked)	> 20%
Cc1cc(C)c2ncc(C(=O)NC(C)(C)C3CC3)n2n1	> 20%
Cc1cc(-c2cccnc2)nc2c(C(=O)NC(C3CC3)C(F)(F)F)nsc12 (centres unmarked)	5 to 20%
Cc1cc(C#N)c(-c2cc(C)c3ncc(C(=O)N[C@@H](C)C4CC4)n3n2)o1	> 20%
Cc1cc(-c2ccc(F)cc2C#N)nn2c(C(=O)N[C@H](C)C3CC3)cnc12	> 20%
Cc1cc(-c2sccc2C#N)nn2c(C(=O)N[C@@H](C3CC3)C(F)(F)F)cnc12	> 20%
Cc1cc(-c2cccnc2)nc2c(C(=O)NC(C)(C)C3CC3)nsc12	5 to 20%
CCC(NC(=O)c1coc2c(C)cc(C)nc12)c1ccccc1 (centres unmarked)	> 20%
Cc1cc(-c2cccnc2)nn2c(C(=O)NC(C3CC3)C(F)(F)F)cnc12 (centres unmarked)	> 20%
Cc1ccc(-c2cc(C)c3ncc(C(=O)N[C@@H](C4CC4)C(F)(F)F)n3n2)cn1	> 20%
Cc1cc(C)c2snc(C(=O)NC3CCCc4ccccc43)c2n1 (centres unmarked)	> 20%
CCCCCCOC1CCC(NC(=O)c2ncc3c(C)cc(C)nn23)CC1 (centres unmarked)	> 20%
Cc1cc(C)c2cnc(C(=O)N[C@@H](C)C3CC3)n2n1	5 to 20%
Cc1cc(-c2cncc(Cl)c2)nn2c(C(=O)N[C@@H](C3CC3)C(F)(F)F)ncc12	> 20%
Cc1cc(Cl)nn2c(C(=O)Nc3ccc4c(c3)CCC4)cnc12	> 20%
Cc1cc(-c2ccc(F)cc2C#N)nn2c(C(=O)NC(C)C(F)(F)F)cnc12 (centres unmarked)	> 20%

---

# activation at 0.1 µM annotations
Biological target: glucocerebrosidase (Gcase) (Homo sapiens, UniProt P04062)
Construct: micellar solution containing 10 nM GCase and 100 nM saposin C
Sequence (P04062 40-536): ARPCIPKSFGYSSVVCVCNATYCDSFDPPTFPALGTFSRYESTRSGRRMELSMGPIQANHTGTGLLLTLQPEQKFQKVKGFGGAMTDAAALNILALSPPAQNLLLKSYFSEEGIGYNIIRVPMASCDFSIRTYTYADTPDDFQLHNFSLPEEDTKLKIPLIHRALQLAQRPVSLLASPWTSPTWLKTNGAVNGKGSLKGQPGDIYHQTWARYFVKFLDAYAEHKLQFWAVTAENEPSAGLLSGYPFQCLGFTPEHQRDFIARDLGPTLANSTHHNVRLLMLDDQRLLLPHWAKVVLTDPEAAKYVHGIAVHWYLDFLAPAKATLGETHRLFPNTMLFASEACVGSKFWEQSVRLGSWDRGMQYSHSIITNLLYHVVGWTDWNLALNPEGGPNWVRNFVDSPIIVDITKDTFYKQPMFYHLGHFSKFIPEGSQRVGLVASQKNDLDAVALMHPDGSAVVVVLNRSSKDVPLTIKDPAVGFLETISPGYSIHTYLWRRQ
Assay: Glucocerebrosidase (Gcase) activation assay, 4-methylumbelliferyl-beta-D-glucopyranoside substrate, with saposin C
Format: biochemical
Conditions: 0.25 h; read-out: Percent Gcase Activation 0.1 μM Test Compound
MEASURED_METRIC: activation at 0.1 µM

COMPOUND	DATA_VALUE
Cc1cc(-c2ccccc2C#N)nn2c(C(=O)NC(C3CC3)C(F)(F)F)cnc12 (stereo not shown)	5 to 20%
Cc1cc(N2CCCC(F)(F)C2)nn2c(C(=O)N[C@H](C3CC3)C(F)(F)F)cnc12	> 20%
Cc1cc(-c2ccc3c(c2)ncn3C)nn2c(C(=O)N[C@H](C3CC3)C(F)(F)F)cnc12	5 to 20%
COc1cccc(-c2cc(C)c3ncc(C(=O)NC(C4CC4)C4CC4)n3n2)c1	> 20%
Cc1cc(-c2sccc2C#N)nn2c(C(=O)N[C@@H](C3CC3)C(F)(F)F)cnc12	> 20%
CCCCCCOC1CCC(NC(=O)c2cnc3cc(C)c(Cl)nn23)CC1 (stereo not shown)	< 5%
Cc1cc(-c2ccc(F)cc2)nn2c(C(=O)N[C@@H](C)C3CC3)cnc12	5 to 20%
O=C(Nc1ccc2c(c1)CCC2)c1cnc2ccc(Cl)nn12	< 5%
Cc1cc(-c2cccc3ncoc23)nn2c(C(=O)NC(C)C(F)(F)F)cnc12 (stereo not shown)	< 5%
Cc1cc(C)c2cnc(C(=O)NC3CCCc4ccccc43)n2n1 (stereo not shown)	5 to 20%
